# Measured on: FGFR2 N549H (Homo sapiens, UniProt P21802, N549H)
# Construct: purchased Signalchem
# Sequence (P21802 22-821 N549H): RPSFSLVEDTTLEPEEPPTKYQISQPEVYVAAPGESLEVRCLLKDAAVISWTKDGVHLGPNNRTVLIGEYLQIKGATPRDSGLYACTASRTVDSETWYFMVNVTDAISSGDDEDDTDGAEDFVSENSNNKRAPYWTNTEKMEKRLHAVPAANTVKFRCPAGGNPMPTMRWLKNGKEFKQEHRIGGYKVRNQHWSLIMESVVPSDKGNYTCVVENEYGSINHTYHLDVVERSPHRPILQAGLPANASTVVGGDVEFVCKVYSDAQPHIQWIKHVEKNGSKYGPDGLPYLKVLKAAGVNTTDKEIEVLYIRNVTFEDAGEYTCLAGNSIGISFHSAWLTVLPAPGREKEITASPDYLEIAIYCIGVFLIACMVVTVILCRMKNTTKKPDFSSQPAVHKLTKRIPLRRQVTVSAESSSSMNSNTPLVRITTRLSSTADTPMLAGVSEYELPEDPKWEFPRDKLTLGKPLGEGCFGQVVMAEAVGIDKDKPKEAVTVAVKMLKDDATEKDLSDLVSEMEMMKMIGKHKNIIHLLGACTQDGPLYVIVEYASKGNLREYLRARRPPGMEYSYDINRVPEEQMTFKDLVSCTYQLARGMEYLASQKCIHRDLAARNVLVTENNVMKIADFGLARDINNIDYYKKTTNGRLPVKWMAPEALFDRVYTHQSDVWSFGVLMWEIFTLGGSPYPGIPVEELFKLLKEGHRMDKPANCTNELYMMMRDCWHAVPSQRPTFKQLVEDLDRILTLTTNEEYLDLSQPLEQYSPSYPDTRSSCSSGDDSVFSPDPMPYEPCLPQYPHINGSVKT
# Test method notes: Inhibitory activity against wild-type and mutant FGFR, HTRF KinEASE-TK
# Format: biochemical
Measured quantity: IC50 (nM)

[[record]]
molecule_smiles = "Cc1[nH]nc2c1N=C(c1ccccc1Cl)c1cnc(N3CCOCC3)cc1N2"
measurement_units = "nM"
recorded_measurement = 1.9


###

# Measured on: FGFR3 WT (Homo sapiens)
# Sequence (P22607 23-806): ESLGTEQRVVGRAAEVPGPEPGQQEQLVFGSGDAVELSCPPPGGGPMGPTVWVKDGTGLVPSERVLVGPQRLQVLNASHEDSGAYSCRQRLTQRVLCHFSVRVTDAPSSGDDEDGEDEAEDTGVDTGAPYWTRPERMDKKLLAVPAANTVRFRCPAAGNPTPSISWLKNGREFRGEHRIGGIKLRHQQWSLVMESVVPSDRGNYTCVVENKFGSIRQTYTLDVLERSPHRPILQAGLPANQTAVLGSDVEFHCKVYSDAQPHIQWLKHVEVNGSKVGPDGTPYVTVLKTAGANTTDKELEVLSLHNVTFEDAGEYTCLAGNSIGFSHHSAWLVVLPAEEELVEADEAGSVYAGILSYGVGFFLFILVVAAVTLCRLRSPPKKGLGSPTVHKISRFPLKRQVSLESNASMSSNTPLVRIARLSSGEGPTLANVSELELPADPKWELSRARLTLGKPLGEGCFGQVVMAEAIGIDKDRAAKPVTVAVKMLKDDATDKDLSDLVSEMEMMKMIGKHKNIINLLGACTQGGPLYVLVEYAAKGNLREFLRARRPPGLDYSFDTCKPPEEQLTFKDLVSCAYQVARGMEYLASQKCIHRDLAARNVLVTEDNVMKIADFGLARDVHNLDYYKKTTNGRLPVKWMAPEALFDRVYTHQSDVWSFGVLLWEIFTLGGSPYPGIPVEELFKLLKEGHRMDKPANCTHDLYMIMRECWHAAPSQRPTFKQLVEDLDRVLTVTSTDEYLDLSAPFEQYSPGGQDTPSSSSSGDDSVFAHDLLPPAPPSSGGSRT
# Test method notes: Inhibitory activity against wild-type and mutant FGFR, HTRF KinEASE-TK
Measured quantity: IC50 (nM)

[[record]]
molecule_smiles = "Cc1[nH]nc2c1N=C(c1ccccc1Cl)c1cnc(N3CCOCC3)cc1N2"
measured_quantity = "IC50"
recorded_measurement = 1


The reported measurements were obtained from patent US20230129164A1.
